Dear all, this message contains IC50 results, target or system ASK1 kinase (Homo sapiens (Human)).
ASSAY_METRIC: IC50 (nM)

COMPOUND: Cc1cc(F)c(C(=O)Nc2cccc3c2OCCn2cncc2-3)cc1-n1cnc(C2CC2)c1 [Example 41]
IC50 / nM: 5.7
--
COMPOUND: CC1(C)COc2c(NC(=O)c3cc(-n4cnc(C5CC5)c4)c(N4CCOCC4)cn3)cccc2-c2nnnn21 [Example 37]
IC50 / nM: 0.5
--
COMPOUND: Cc1cc(F)c(C(=O)Nc2cccc3c2OC[C@@H](C2CC2)n2nnnc2-3)cc1-n1cnc(C2CC2)c1 [Example 12]
IC50 / nM: 4.7
--
COMPOUND: C[C@@H]1COc2c(NC(=O)c3cc(-n4cnc(C5CC5)c4)c(N4CCOCC4)cn3)cccc2-c2nnnn21 [Example 19]
IC50 / nM: 2.2
--
COMPOUND: Cc1cc(F)c(C(=O)Nc2cccc3c2OC[C@H](CO)n2nnnc2-3)cc1-n1cnc(C2CC2)c1 [Example 23]
IC50 / nM: 0.9

1: Cc1cc(F)c(C(=O)Nc2cccc3c2OC[C@@H]([C@@H](C)O)n2nnnc2-3)cc1-n1cnc(C2CC2)c1 [Example 53]
2: C[C@H]1COc2c(NC(=O)c3cc(-n4cnc(C5CC5)c4)c(N4CCOCC4)cn3)cccc2-c2nnnn21 [Example 22]
3: CC1(O)CCN(c2cnc(C(=O)Nc3cccc4c3OCCn3nnnc3-4)cc2-n2cnc(C3CC3)c2)C1 (stereo not drawn) [Example 63]
4: Cc1cc(F)c(C(=O)Nc2cccc3c2OC2(CCC2)Cn2nnnc2-3)cc1-n1cnc(C2CC2)c1 [Example 72]
5: Cc1cc(F)c(C(=O)Nc2cccc3c2O[C@@H](C)Cn2nnnc2-3)cc1-n1cnc(C2CC2)c1 [Example 42]
Incoming: Rank order required: IC50, descending. Use the labels to give the ranking in the order requested.
Outgoing: 5, 4, 1, 3, 2
